This collection of values is drawn from paper PMC5540273.

# System: PDPK1
# testSettings: concentration: 1 μM, replicates: in singlicate; n = 1;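 note: KINOMEscan kinase panel screen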
Consider the following compounds and their measured %Inh readings.

- smilesStr: "CSc1ccc(-c2nc3n(c2-c2ccncc2)CCC3)cc1"
  %Inh [%]: 0
- smilesStr: "Cc1ccc(NC(=O)Nc2ccccc2)cc1-c1ccc(C(=O)Nc2ccncc2)cc1"
  %Inh [%]: 26
- smilesStr: "CCCCc1nn2ncccc2c1-c1ccnc(NC2CC2)n1"
  %Inh [%]: 0
- smilesStr: "O=C(Nc1n[nH]c2cc(-c3ccsc3)ccc12)C1CC1"
  %Inh [%]: 0

---

Consider the following molecules and their measured %Inh readings.
# Test system: PRKX
# testSettings: concentration: 1 μM, replicates: in singlicate; n = 1

- molecule: "Cc1cccc2c(-c3ccncn3)c(-c3ccc(F)cc3)nn12"
  readingUnit: "%"
  %Inh: 5
- molecule: "COc1ccc(CSc2nnc(-c3ccc4nccn4c3)o2)cc1C(F)(F)F"
  readingUnit: "%"
  %Inh: 34
- molecule: "CNc1cc(-c2ccc3c(N)n[nH]c3c2)nc(N)n1"
  readingUnit: "%"
  %Inh: 57
- molecule: "CC(C)c1ccc(O)cc1Nc1ccnc2ccc(C(F)(F)F)cc12"
  readingUnit: "%"
  %Inh: 0
- molecule: "COc1ccc(-c2coc3ccc(-c4nnc(C)o4)cc23)cc1"
  readingUnit: "%"
  %Inh: 0
- molecule: "Cc1ccc(NC(=O)Nc2ccccc2)cc1-c1ccc(C(=O)Nc2ccncc2)cc1"
  readingUnit: "%"
  %Inh: 14
- molecule: "Cc1nccc(-c2c(-c3ccc(F)cc3)ncn2CCCN2CCOCC2)n1.Cl"
  readingUnit: "%"
  %Inh: 0
- molecule: "Cn1cncc1C(=O)NC1CCN(c2ccnc(Nc3ccc(F)cc3)n2)C1 (stereo not drawn)"
  readingUnit: "%"
  %Inh: 0
- molecule: "COC(=O)C(Cc1ccccc1)NC(=O)NC1CCN(c2ccnc(Nc3ccc(F)cc3)n2)C1 (stereo not drawn)"
  readingUnit: "%"
  %Inh: 0

---

# Tested on: MAPKAPK5
# testSettings: concentration: 1 μM, replicates: in singlicate; n = 1
endpointName: %Inh (%)

- molecule: "Cc1ccccc1Cn1ccn2c(=O)cc(N3CCOCC3)nc12"
  testSystem: "MAPKAPK5"
  endpointName: "%Inh"
  measValue: 0
- molecule: "c1ccc(-c2ccnc3[nH]ccc23)cc1"
  testSystem: "MAPKAPK5"
  endpointName: "%Inh"
  measValue: 0
- molecule: "Fc1ccc(-c2nn3cccc(F)c3c2-c2ccncc2)cc1"
  testSystem: "MAPKAPK5"
  endpointName: "%Inh"
  measValue: 0
- molecule: "COc1ccc2cc(-c3nc(-c4ccccc4C(C)C)[nH]c3-c3ccncc3)ccc2c1"
  testSystem: "MAPKAPK5"
  endpointName: "%Inh"
  measValue: 0
- molecule: "O=C(Nc1n[nH]c2cc(-c3ccsc3)ccc12)C1CC1"
  testSystem: "MAPKAPK5"
  endpointName: "%Inh"
  measValue: 24
- molecule: "COc1ccc(CSc2nnc(-c3ccc4ncsc4c3)o2)cc1C(F)(F)F"
  testSystem: "MAPKAPK5"
  endpointName: "%Inh"
  measValue: 0
- molecule: "COc1ccc(CSc2nnc(-c3ccc4nccn4c3)o2)cc1C(F)(F)F"
  testSystem: "MAPKAPK5"
  endpointName: "%Inh"
  measValue: 27
- molecule: "CCCCc1nn2ncccc2c1-c1ccnc(NC2CC2)n1"
  testSystem: "MAPKAPK5"
  endpointName: "%Inh"
  measValue: 0
- molecule: "COC(=O)c1cccc(NC(=O)NC2CCN(c3ccnc(Nc4ccc(OC)cc4)n3)C2)c1 (stereo not drawn)"
  testSystem: "MAPKAPK5"
  endpointName: "%Inh"
  measValue: 0

---

# System: DAPK1
# testSettings: concentration: 1 μM, replicates: in singlicate; n = 1
Consider the following compounds and their measured %Inh readings.
endpointName: %Inh (%)

- compound: "O=C(Nc1n[nH]c2nc(-c3cccs3)c(Br)cc12)C1CC1"
  readingUnit: "%"
  measValue: 0
- compound: "CNc1nc(-c2ccc3c(N)n[nH]c3c2)cc(N2C[C@@H](C(=O)NC3CCCCC3)OC[C@H]2C)n1"
  readingUnit: "%"
  measValue: 26
- compound: "COc1ccc(CSc2nnc(-c3ccc4c(c3)CCO4)o2)cc1"
  readingUnit: "%"
  measValue: 0
- compound: "COc1ccc(Nc2nccc(-c3ccc(NC(=O)c4cc5cc(F)ccc5[nH]4)cc3)n2)cc1"
  readingUnit: "%"
  measValue: 55
- compound: "COc1ccc(CSc2nnc(-c3ccc4ncsc4c3)o2)cc1C(F)(F)F"
  readingUnit: "%"
  measValue: 10
- compound: "CS(=O)(=O)CCNCc1nc(-c2ccc3ncnc(Nc4ccc5c(cnn5Cc5ccccc5)c4)c3c2)cs1.Cl.Cl"
  readingUnit: "%"
  measValue: 0
- compound: "Cc1cnc(N)c(/C=C/c2cncc(C(=O)NCCc3ccc(Cl)cc3Cl)c2)c1.Cl"
  readingUnit: "%"
  measValue: 10
- compound: "CS(=O)(=O)Cc1ccc(Nc2nccc(-c3c(-c4cccc(NC(=O)C5CCCCC5)c4)nn4ncccc34)n2)cc1"
  readingUnit: "%"
  measValue: 0
- compound: "COC(=O)c1cccc(NC(=O)NC2CCN(c3ccnc(Nc4ccc(OC)cc4)n3)C2)c1 (stereo not shown)"
  readingUnit: "%"
  measValue: 0
- compound: "CCn1c(-c2ccccc2)nc2cnccc21"
  readingUnit: "%"
  measValue: 0
- compound: "c1ccc(-c2ccnc3[nH]ccc23)cc1"
  readingUnit: "%"
  measValue: 0
- compound: "Cn1cnc2c(N)ncnc21"
  readingUnit: "%"
  measValue: 100
- compound: "Cc1ccccc1Cn1ccn2c(=O)cc(N3CCOCC3)nc12"
  readingUnit: "%"
  measValue: 0
- compound: "Cc1c(Cn2c(C)c(C)n3c(=O)cc(N4CCOCC4)nc23)cccc1C(F)(F)F"
  readingUnit: "%"
  measValue: 0
- compound: "CN1c2ccc(-c3ccc(C(N)=O)cc3)cc2-c2[nH]ncc2S1(=O)=O"
  readingUnit: "%"
  measValue: 54
- compound: "O=c1cc(N2CCOCC2)nc2n(Cc3ccccc3F)ccn12"
  readingUnit: "%"
  measValue: 0
- compound: "Fc1ccc(-c2nn3cccc(F)c3c2-c2ccncc2)cc1"
  readingUnit: "%"
  measValue: 0
- compound: "COC(=O)C(NC(=O)NC1CCN(c2ccnc(Nc3ccc(F)cc3)n2)C1)c1ccccc1 (stereo not shown)"
  readingUnit: "%"
  measValue: 15
- compound: "O=C(Nc1n[nH]c2cc(-c3ccsc3)ccc12)C1CC1"
  readingUnit: "%"
  measValue: 4

---

# Test system: HIPK3
# testSettings: concentration: 1 μM, replicates: in singlicate; n = 1

- molecule: "Cn1cnc2c(N)ncnc21 [SKF-97623]"
  readingUnit: "%"
  %Inh: 0
- molecule: "COc1ccc2cc(-c3nc(-c4ccccc4C(C)C)[nH]c3-c3ccncc3)ccc2c1 [SB-660566]"
  readingUnit: "%"
  %Inh: 25
- molecule: "Cn1cncc1-c1cc2c(Nc3ccc(OCc4ccccc4)cc3)ncnc2cn1 [GW281179]"
  readingUnit: "%"
  %Inh: 0
- molecule: "Cc1cccc2c(-c3ccncn3)c(-c3ccc(F)cc3)nn12 [GW515532]"
  readingUnit: "%"
  %Inh: 0
- molecule: "COc1nccc(-c2c(-c3ccc(F)cc3)ncn2CCCN2CCOCC2)n1 [SB-282852]"
  readingUnit: "%"
  %Inh: 0
- molecule: "COC(=O)c1cccc(NC(=O)NC2CCN(c3ccnc(Nc4ccc(F)cc4)n3)C2)c1 (stereo not shown) [GSK1379725]"
  readingUnit: "%"
  %Inh: 0
- molecule: "Cc1ccc(NC(=O)c2ccc(Cl)cc2)cc1-c1ccc(C(=O)Nc2ccncc2)cc1 [GSK1398467]"
  readingUnit: "%"
  %Inh: 3
- molecule: "O=C1NC(=O)C(c2ccc(Cl)cc2)=C1Nc1cccc(Cl)c1 [SB-317651]"
  readingUnit: "%"
  %Inh: 0
- molecule: "Cc1ccc(NC(=O)Nc2ccc(Cl)c(C(F)(F)F)c2)cc1-c1ccc(C(=O)Nc2ccncc2)cc1 [GSK1398470]"
  readingUnit: "%"
  %Inh: 0
- molecule: "COC(=O)C(Cc1ccccc1)NC(=O)NC1CCN(c2ccnc(Nc3ccc(F)cc3)n2)C1 (stereo not shown) [GSK1379714]"
  readingUnit: "%"
  %Inh: 0
- molecule: "CNC(=O)c1ccc(C)c(-n2c(C)cc(OCc3ccc(F)cc3F)c(Br)c2=O)c1"
  readingUnit: "%"
  %Inh: 0
- molecule: "COc1ccc(CSc2nnc(-c3ccc4c(c3)CCO4)o2)cc1"
  readingUnit: "%"
  %Inh: 0
- molecule: "O=c1cc(N2CCOCC2)nc2n(Cc3cccc(Cl)c3Cl)c3ccccc3n12 [GSK2299009]"
  readingUnit: "%"
  %Inh: 19
- molecule: "CC(C)c1ccc(O)cc1Nc1ccnc2ccc(C(F)(F)F)cc12 [GW482059]"
  readingUnit: "%"
  %Inh: 0
- molecule: "Cc1ccccc1Cn1ccn2c(=O)cc(N3CCOCC3)nc12 [GSK2269905]"
  readingUnit: "%"
  %Inh: 9
- molecule: "Cn1cncc1C(=O)NC1CCN(c2ccnc(Nc3ccc(F)cc3)n2)C1 (stereo not shown) [GSK1379717]"
  readingUnit: "%"
  %Inh: 3
- molecule: "CCn1c(-c2ccccc2)nc2cnccc21 [SB-733416]"
  readingUnit: "%"
  %Inh: 10
- molecule: "COc1cccc(NC(=O)Nc2ccc(C)c(-c3ccc(C(=O)Nc4ccncc4)cc3)c2)c1 [GSK1398474]"
  readingUnit: "%"
  %Inh: 20
- molecule: "CN1c2ccc(-c3ccc(C(N)=O)cc3)cc2-c2[nH]ncc2S1(=O)=O"
  readingUnit: "%"
  %Inh: 19
